# Test system: Staphylococcus epidermidis
# assay-info: MIC, CLSI broth microdilution, clinical isolates
# Assay type: cell-based
# cond: Staphylococcus epidermidis (MSSE, N = 6)
observable: % S
Show the value, then the unit it is measured in.

{"compound": "NC[C@H]1O[C@H](O[C@H]2[C@H](O)[C@@H](O[C@H]3O[C@H](CO)[C@@H](O)[C@H](N)[C@H]3O)[C@H](N)C[C@@H]2N)[C@H](N)C[C@@H]1O", "val": "100.0%"}
{"compound": "Cc1onc(-c2ccccc2)c1C(=O)N[C@@H]1C(=O)N2[C@@H]1SC(C)(C)[C@@H]2C(=O)O", "val": "100.0%"}
{"compound": "CC[C@H]1OC(=O)[C@H](C)[C@@H](O[C@H]2C[C@@](C)(OC)[C@@H](O)[C@H](C)O2)[C@H](C)[C@@H](O[C@@H]2O[C@H](C)C[C@H](N(C)C)[C@H]2O)[C@](C)(O)C[C@@H](C)CN(C)[C@H](C)[C@@H](O)[C@]1(C)O", "val": "66.7%"}
{"compound": "C[C@H]1COc2c(N3CCN(C)CC3)c(F)cc3c(=O)c(C(=O)O)cn1c23", "val": "83.3%"}

We next turn to a different compound, shown below.
Summary for this compound, COc1c(N2CCNC(C)C2)c(F)cc2c(=O)c(C(=O)O)cn(C3CC3)c12 (centres unmarked) : % S is 83.3%
